Overview of reported inhibition at 4 µM across a group of compounds:
# target of assay: chimeric human H3 receptor (Homo sapiens, UniProt Q9Y5N1, E19D)
# Construct: made in house; host or cells: Sf9 insect cells (baculovirus infection); P2 membrane preparation
# Sequence (Q9Y5N1 with tags, fused parts or gaps E19D): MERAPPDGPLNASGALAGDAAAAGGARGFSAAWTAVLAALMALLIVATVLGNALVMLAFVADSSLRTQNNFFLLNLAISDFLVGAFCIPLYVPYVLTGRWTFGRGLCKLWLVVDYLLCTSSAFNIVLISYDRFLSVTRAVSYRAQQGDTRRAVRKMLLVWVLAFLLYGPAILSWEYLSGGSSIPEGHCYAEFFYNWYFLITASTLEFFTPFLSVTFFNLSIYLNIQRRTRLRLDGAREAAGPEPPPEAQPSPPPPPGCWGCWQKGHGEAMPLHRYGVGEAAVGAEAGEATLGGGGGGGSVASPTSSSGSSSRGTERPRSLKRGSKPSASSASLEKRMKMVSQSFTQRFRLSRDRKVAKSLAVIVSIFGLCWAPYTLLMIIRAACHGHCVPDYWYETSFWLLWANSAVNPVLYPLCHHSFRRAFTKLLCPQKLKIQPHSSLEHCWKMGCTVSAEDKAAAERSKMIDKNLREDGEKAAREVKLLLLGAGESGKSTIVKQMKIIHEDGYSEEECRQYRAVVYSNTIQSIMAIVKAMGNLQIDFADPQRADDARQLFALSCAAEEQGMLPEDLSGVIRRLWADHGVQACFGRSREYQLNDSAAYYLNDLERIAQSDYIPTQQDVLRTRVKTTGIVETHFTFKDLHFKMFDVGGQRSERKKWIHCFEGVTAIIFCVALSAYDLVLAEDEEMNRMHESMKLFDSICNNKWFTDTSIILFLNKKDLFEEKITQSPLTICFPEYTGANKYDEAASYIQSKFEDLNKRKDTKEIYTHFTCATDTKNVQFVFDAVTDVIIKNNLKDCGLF
# measurement protocol: Chimeric human H3 receptor screening GTP binding assay (inhibition of histamine-stimulated GTP-gamma35S binding, Example 8)
# Format: biochemical
# particulars: 1 h; assay described in Example 8; symbol + in column headed Ki of Table II; read-out: percent inhibition of agonist-induced GTP-gammaS binding to H3

- smiles repr: "O=C(CN1CCN(C(=O)c2ccccc2Cc2ccccc2)CC1)N1CCN(C2CCC2)CC1"
  inhibition at 4 µM: "> 90%"
- smiles repr: "O=C(CN1CCN(C(=O)c2ccc(F)c(Cl)c2)CC1)N1CCN(C2CCC2)CC1"
  inhibition at 4 µM: "> 90%"
- smiles repr: "COc1cc(Cl)ccc1C(=O)N1CCN(CC(=O)N2CCN(C3CCC3)CC2)CC1"
  inhibition at 4 µM: "> 90%"

# context switch: different compound, same inhibition at 4 µM
Challenge: Which inhibition at 4 µM value belongs to CCOc1ccc(Br)cc1/C=C/C(=O)N1CCN(CC(=O)N2CCN(C3CCC3)CC2)CC1 ?
Response given: > 90%
